Reported self-splicing fitness (ln) values for a set of sequences
Assay: self-splicing fitness, log relative to wild type (ln ratio); higher = more splicing; Tetrahymena group I intron in knt gene, E. coli kanamycin selection, DiMSum; sequences stand for … in CUCUCU…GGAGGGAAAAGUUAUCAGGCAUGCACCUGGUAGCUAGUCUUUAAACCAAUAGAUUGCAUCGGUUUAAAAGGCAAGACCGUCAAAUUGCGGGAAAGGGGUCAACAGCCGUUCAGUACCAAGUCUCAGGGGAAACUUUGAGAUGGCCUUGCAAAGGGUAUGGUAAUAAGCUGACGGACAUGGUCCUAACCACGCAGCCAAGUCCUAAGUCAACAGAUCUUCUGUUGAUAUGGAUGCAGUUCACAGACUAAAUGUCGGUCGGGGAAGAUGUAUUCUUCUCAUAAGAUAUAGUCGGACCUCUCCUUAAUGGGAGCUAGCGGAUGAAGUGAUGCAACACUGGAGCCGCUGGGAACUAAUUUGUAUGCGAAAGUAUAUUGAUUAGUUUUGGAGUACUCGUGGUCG;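 note: selection with 25 µg/mL kanamycin versus none on LB agar overnight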
Settings: 37 °C
Would you mind answering with just the numeric figure?

Study these solved cases before continuing.
AUUCAGCAAUAUUACGACGC = 0.397
GAGUAGCAAUAUUACGAUGC = -0.495
UCCGAGCAAUAUUACGACAG = -2.55

Value of measured self-splicing fitness (ln) for the entry CGGAAGCAAUAUUACGUGGU : -1.94

Value of measured self-splicing fitness (ln) for the entry UCUGAGCAAUAUUACGUGAA : -1.9

Value of measured self-splicing fitness (ln) for the entry UUCGAGCAAUAUUACGUAUU : -2.79

Value of measured self-splicing fitness (ln) for the entry AUCGAGCAAUAUUACGGUGU : -1.71

Value of measured self-splicing fitness (ln) for the entry ACUCAGCAAUAUUACGGACA : -1.06

###

Assay: self-splicing fitness, log relative to wild type (ln ratio); higher = more splicing; Tetrahymena group I intron in knt gene, E. coli kanamycin selection, DiMSum; sequences stand for … in CUCUCU…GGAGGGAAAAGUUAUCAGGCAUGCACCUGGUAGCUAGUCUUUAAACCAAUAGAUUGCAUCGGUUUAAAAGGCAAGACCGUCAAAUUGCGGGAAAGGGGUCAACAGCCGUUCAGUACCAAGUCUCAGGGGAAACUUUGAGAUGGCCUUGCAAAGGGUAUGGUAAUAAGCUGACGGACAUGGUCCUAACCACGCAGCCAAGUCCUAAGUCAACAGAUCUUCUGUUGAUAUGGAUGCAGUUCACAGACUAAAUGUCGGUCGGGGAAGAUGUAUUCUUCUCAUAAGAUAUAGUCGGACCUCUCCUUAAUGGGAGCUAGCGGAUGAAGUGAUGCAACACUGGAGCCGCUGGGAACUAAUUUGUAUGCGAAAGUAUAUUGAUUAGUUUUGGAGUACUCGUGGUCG
Conditions: 30 °C
measured_endpoint: self-splicing fitness (ln)

Study these solved cases before continuing.
CUCCAGCAAUAUUACGAUAC = -3.57
AACCAGCAAUAUUACGGUCG = -0.366
GAUAAGCAAUAUUACGCGAA = -2.31
GUACAGCAAUAUUACGGAAG = -1.45
AAGCAGCAAUAUUACGCUAC = -2.96

Value of measured self-splicing fitness (ln) for the entry CUUUAGCAAUAUUACGACGG : -0.354

Value of measured self-splicing fitness (ln) for the entry AAAUAGCAAUAUUACGACAA : -0.727

Value of measured self-splicing fitness (ln) for the entry CUGCAGCAAUAUUACGCCAU : -3.9

Value of measured self-splicing fitness (ln) for the entry UCAUAGCAAUAUUACGGUGG : -3.13

###

Assay: self-splicing fitness, log relative to wild type (ln ratio); higher = more splicing; Tetrahymena group I intron in knt gene, E. coli kanamycin selection, DiMSum; sequences stand for … in CUCUCU…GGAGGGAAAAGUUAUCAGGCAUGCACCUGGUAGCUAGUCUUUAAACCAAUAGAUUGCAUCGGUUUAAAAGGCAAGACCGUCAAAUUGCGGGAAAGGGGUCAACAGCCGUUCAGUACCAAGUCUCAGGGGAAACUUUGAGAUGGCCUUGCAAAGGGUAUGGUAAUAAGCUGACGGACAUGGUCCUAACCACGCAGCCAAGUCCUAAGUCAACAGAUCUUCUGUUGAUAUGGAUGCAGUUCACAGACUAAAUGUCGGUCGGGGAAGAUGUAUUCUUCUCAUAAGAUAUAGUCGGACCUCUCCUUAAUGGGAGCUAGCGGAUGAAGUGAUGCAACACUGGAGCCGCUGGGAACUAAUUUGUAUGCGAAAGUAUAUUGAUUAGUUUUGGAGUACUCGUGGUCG
Conditions: 30 °C
measured_endpoint: self-splicing fitness (ln)
Would you mind answering with just the numeric figure?

Study these solved cases before continuing.
UUCCAGCAAUAUUACGCGGU = -3.42
GGUCAGCAAUAUUACGAUAA = 0.11
CGCUAGCAAUAUUACGGAUC = -3.32
AAGUAGCAAUAUUACGGCGA = -0.41

Value of measured self-splicing fitness (ln) for the entry CGUCAGCAAUAUUACGGGAG : -2.36

Value of measured self-splicing fitness (ln) for the entry GCCGAGCAAUAUUACGAGCA : -1.93

Value of measured self-splicing fitness (ln) for the entry CGACAGCAAUAUUACGAUCC : -0.0657

Value of measured self-splicing fitness (ln) for the entry CGCGAGCAAUAUUACGAUUA : -3.1

Value of measured self-splicing fitness (ln) for the entry CAGAAGCAAUAUUACGCGCA : -1.55

###

Assay: self-splicing fitness, log relative to wild type (ln ratio); higher = more splicing; Tetrahymena group I intron in knt gene, E. coli kanamycin selection, DiMSum; sequences stand for … in CUCUCU…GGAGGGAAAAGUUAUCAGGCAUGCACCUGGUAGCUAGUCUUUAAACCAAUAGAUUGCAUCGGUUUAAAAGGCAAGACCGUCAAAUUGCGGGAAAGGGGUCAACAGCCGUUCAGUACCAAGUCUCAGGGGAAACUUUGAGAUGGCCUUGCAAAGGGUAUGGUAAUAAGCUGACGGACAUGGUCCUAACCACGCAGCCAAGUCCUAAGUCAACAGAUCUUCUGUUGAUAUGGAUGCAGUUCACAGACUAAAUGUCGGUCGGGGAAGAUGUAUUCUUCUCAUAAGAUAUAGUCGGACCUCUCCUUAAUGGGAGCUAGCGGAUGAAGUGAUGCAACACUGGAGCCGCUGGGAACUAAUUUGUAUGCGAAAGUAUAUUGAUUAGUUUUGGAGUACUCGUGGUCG
Settings: 37 °C
measured_endpoint: self-splicing fitness (ln)
Would you mind answering with just the numeric figure?

Study these solved cases before continuing.
CGGGAGCAAUAUUACGGGCG = -2.67
GAUGAGCAAUAUUACGCACU = -1.04
CAACAGCAAUAUUACGCACC = -0.879
ACAGAGCAAUAUUACGCCGC = -1.07
GCCAAGCAAUAUUACGAACC = -0.423

Value of measured self-splicing fitness (ln) for the entry AUUCAGCAAUAUUACGCCGU : 0.177

Value of measured self-splicing fitness (ln) for the entry CCCUAGCAAUAUUACGGUUC : -2.04

Value of measured self-splicing fitness (ln) for the entry UUCGAGCAAUAUUACGACUU : -1.49

Value of measured self-splicing fitness (ln) for the entry GAGAAGCAAUAUUACGGUCU : -1.16

###

Experiment: self-splicing fitness, log relative to wild type (ln ratio); higher = more splicing; Tetrahymena group I intron in knt gene, E. coli kanamycin selection, DiMSum; sequences stand for … in CUCUCU…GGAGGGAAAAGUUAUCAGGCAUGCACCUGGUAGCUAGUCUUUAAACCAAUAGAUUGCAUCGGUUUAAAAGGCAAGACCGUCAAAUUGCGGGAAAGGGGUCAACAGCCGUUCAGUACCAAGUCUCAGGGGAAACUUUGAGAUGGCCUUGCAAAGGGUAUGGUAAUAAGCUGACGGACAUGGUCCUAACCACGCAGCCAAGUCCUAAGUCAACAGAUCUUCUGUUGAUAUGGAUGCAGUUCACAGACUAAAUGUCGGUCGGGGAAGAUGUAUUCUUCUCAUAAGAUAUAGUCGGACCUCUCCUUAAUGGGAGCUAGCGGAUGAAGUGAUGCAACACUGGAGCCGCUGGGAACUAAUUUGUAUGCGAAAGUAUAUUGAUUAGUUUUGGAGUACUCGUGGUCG
Conditions: 37 °C
measured_endpoint: self-splicing fitness (ln)
Would you mind answering with just the numeric figure?

Value of measured self-splicing fitness (ln) for the entry ACCGAGCAAUAUUACGCUCG : -1.61

Value of measured self-splicing fitness (ln) for the entry ACCAAGCAAUAUUACGCAUA : -1.44

Value of measured self-splicing fitness (ln) for the entry AGGUAGCAAUAUUACGCGGA : -1.09

Value of measured self-splicing fitness (ln) for the entry AAGGAGCAAUAUUACGAGUC : -2.05

Value of measured self-splicing fitness (ln) for the entry GUGCAGCAAUAUUACGUUGC : -2.93

Value of measured self-splicing fitness (ln) for the entry AGGGAGCAAUAUUACGGUAU : -0.384

Value of measured self-splicing fitness (ln) for the entry ACCAAGCAAUAUUACGACAU : -0.296

Value of measured self-splicing fitness (ln) for the entry CGGUAGCAAUAUUACGGGGU : -2.81
